Listed here are compounds together with their documented pIC50.
# tgt: human ACC2 (Homo sapiens, UniProt O00763)
# Construct: made in house; host or cells: insect cells (baculoviral expression system)
# Sequence (O00763 129-2458 limits assumed): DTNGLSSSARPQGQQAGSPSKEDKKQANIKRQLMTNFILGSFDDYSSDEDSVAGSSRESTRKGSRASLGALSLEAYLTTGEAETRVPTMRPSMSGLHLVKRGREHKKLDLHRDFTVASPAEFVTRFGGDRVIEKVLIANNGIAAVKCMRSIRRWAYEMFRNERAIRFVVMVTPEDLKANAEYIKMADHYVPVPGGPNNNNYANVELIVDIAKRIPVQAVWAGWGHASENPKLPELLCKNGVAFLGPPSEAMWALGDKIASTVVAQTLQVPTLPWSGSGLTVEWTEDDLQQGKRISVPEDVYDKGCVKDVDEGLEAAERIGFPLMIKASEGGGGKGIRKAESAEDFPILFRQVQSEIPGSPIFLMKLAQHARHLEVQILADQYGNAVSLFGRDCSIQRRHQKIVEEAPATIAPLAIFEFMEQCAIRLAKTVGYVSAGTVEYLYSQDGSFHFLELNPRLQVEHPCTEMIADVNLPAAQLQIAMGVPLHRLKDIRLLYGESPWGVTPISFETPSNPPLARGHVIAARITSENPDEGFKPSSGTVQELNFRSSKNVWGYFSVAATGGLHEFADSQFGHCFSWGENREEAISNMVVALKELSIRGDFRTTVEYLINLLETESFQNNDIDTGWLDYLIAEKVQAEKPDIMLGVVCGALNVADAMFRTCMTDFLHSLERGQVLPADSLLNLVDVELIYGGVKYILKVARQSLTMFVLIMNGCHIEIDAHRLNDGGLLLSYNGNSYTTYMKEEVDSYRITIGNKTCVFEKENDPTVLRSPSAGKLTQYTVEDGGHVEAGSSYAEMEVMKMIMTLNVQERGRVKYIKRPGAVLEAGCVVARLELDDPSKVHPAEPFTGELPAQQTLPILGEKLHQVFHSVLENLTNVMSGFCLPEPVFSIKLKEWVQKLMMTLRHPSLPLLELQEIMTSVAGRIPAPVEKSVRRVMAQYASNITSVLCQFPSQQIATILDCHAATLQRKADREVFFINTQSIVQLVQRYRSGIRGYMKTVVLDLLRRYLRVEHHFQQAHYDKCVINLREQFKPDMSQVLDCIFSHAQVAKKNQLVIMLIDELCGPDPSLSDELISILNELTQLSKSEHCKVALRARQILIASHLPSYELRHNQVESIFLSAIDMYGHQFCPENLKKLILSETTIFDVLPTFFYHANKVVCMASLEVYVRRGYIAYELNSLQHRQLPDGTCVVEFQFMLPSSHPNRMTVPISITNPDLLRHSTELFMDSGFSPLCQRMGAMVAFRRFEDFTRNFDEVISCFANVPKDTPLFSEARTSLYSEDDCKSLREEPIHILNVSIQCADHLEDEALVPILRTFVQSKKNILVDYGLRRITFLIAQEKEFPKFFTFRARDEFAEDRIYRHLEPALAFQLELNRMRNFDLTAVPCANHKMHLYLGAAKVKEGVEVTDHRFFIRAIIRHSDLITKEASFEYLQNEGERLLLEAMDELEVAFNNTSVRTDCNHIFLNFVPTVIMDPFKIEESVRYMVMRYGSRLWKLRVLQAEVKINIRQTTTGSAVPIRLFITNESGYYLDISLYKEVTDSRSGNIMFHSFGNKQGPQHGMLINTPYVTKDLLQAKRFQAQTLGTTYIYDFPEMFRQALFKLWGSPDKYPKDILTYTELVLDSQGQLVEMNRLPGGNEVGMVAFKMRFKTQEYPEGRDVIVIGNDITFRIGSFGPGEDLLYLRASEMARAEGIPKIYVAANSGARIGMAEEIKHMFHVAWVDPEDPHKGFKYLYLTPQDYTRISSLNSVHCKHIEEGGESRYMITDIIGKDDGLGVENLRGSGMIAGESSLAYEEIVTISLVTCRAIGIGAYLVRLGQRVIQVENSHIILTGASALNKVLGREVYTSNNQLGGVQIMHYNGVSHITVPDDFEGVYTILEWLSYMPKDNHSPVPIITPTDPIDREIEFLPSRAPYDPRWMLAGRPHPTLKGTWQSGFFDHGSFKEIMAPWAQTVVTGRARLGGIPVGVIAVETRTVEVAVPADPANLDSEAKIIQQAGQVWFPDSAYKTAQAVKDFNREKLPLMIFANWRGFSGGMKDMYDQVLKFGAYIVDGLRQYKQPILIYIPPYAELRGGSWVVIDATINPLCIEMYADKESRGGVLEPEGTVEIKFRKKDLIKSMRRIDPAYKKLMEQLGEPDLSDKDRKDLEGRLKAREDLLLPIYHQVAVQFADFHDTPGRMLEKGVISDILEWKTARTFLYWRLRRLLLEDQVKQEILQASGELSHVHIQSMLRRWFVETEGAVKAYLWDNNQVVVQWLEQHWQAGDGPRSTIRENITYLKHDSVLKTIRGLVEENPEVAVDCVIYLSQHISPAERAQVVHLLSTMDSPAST
# protocol_text: ACC2 assay, spectrophotometric 384 well assay (NADH-linked, coupled lactate dehydrogenase/pyruvate kinase)
# Type: biochemical
# assay_conditions: ACC2 assay, hACC2 construct lacking 128 N-terminal amino acids, 25° C., 340 nm; read-out: IC50
pIC50: −log10 of the molar value.
quantity_measured: pIC50

>>> df
                              record_smiles                                       tgt  measured
0  CC(=O)N[C@@H](C)c1ccc(C2CCN(c3ncc(C(=O)Nc4ccccc4C)cn3)CC2)cc1  human ACC2 (Homo sapiens, UniProt O00763)      5.44
1  C[C@H](NC(=O)C1CC1)c1ccc(C2CCN(c3ccc4c(c3)OCC(C)(C)CO4)CC2)cc1  human ACC2 (Homo sapiens, UniProt O00763)      5.92
2  CC(=O)N[C@@H](C)c1ccc(C2CCN(c3ccc(OCc4cc(C)on4)cc3)CC2)cc1  human ACC2 (Homo sapiens, UniProt O00763)      6.11
3  CCN(CC)C(=O)c1cnc(N2CCC(c3ccc([C@H](C)NC(C)=O)cc3)CC2)nc1  human ACC2 (Homo sapiens, UniProt O00763)      6.04
4  CC(=O)N[C@@H](C)c1ccc(C2CCN(c3cc(NC4CCOCC4)ncn3)CC2)cc1  human ACC2 (Homo sapiens, UniProt O00763)      5.08
5  CC(=O)N[C@@H](C)c1ccc(C2CCN(c3ncc(-c4ccc(N(C)C)nc4)cn3)CC2)cc1  human ACC2 (Homo sapiens, UniProt O00763)      4.98
6  CC(=O)N[C@@H](C)c1ccc(C2CCN(c3ncc(C(=O)N(C)Cc4ccncc4)cn3)CC2)cc1  human ACC2 (Homo sapiens, UniProt O00763)      5.01
